Listing of recorded inhibition at 110 µM by entry.
- Test system: C. elegans
- protocol: microbe, parasite or virus in culture
- conditionParameters: Caenorhabditis elegans, 0 h, read-out: Percentage of motility inhibition 0 h, Table S2, C. elegans SS assay, 110 μM, 0 h, averages of 4 data points
Your answer is read as %, so omit the unit and give the number.

Illustrative cases are given below, each with its answer.
> print(dat)
                                  structure  measuredon  measvalue
1  C[C@]1(Cn2ccnn2)[C@H](C(=O)O)N2C(=O)C[C@H]2S1(=O)=O  C. elegans         16
2                          Cc1nc(C)c(C)nc1C  C. elegans          0
3  CC[C@@H]1CN2CC[C@@]3(C(=O)Nc4ccccc43)[C@@H]2C[C@@H]1/C(=C\OC)C(=O)OC  C. elegans          3

Bench note: what inhibition at 110 µM did "C[C@H](C[C@H](O)[C@@H](O)C(C)(C)O)C1=C2C[C@H](O)[C@H]3[C@@]4(C)CCC(=O)C(C)(C)[C@@H]4CC[C@]3(C)[C@@]2(C)CC1" show?
3

----------
- System: C. elegans
- protocol: microbe, parasite or virus in culture
- conditionParameters: Caenorhabditis elegans, 24 h, read-out: Percentage of motility inhibition 24 h, Table S2, C. elegans SS assay, 110 μM, 24 h, averages of 4 data points
Entries and their inhibition at 110 µM values follow.
The response must be a number in % with no trailing unit.

Solved entries (count: 3):
compound	inhibition at 110 µM [%]
C=C1CC[C@@H]2[C@](C)(CO)CCC[C@@]2(C)[C@@H]1CCC1=CCOC1=O	20
Cc1nc(C(F)(F)F)c(C(=O)Nc2c(Br)cc(OC(F)(F)F)cc2Br)s1 [Thifluzamide]	29
CC[C@H]1OC(=O)[C@H](C)[C@@H](O[C@H]2C[C@@](C)(OC)[C@@H](O)[C@H](C)O2)[C@H](C)[C@@H](O[C@@H]2O[C@H](C)C[C@H](N(C)C)[C@H]2O)[C@](C)(O)C[C@@H](C)[C@@H]2N[C@@H](COCCOC)O[C@H]([C@H]2C)[C@]1(C)O	0

Please give the measured inhibition at 110 µM for this compound: "O=c1[nH]cnc2c1ncn2[C@@H]1O[C@H](CO)[C@@H](O)[C@H]1O"
10

// query inhibition at 110 µM value for entry "Cc1nnc(NS(=O)(=O)c2ccc(N)cc2)s1"
0

Given C[C@H]1[C@H](OC(=O)CCC(=O)O)O[C@@H]2O[C@@]3(C)CC[C@H]4[C@H](C)CC[C@@H]1[C@@]24OO3 [Artesunate] , state its recorded inhibition at 110 µM.
30

What value of inhibition at 110 µM has been reported for the following compound? "O=C(O)[C@H]1O[C@@H](Oc2c(O)cc(O)c3c(=O)c(O)c(-c4ccc(O)c(O)c4)oc23)[C@H](O)[C@@H](O)[C@@H]1O"
1

If you can, please state the reported inhibition at 110 µM value of C=C(C)[C@@H]1CC[C@]2(C(=O)O)CC[C@]3(C)[C@H](CC[C@@H]4[C@@]5(C)CC[C@@H](O)C(C)(C)[C@@H]5CC[C@]43C)[C@@H]12 [Epibetulinic acid] .
17

Would you mind telling me what inhibition at 110 µM value was observed for C[C@@H]1O[C@@H](OC[C@H]2O[C@@H](Oc3c(-c4ccc(O)cc4)oc4cc(O)cc(O)c4c3=O)[C@H](O[C@@H]3O[C@H](CO)[C@H](O)[C@H](O)[C@H]3O)[C@@H](O)[C@@H]2O)[C@H](O)[C@H](O)[C@H]1O [Camelliaside A] ?
10

Given the compound "CC1(C)CC[C@]2(C(=O)O)CC[C@]3(C)C(=CC[C@@H]4[C@@]5(C)C[C@@H](O)[C@H](O)C(C)(C)[C@@H]5CC[C@]43C)[C@@H]2C1" , what is its reported inhibition at 110 µM?
5
